- PROCEDURE_TEXT: NCI Yeast Anticancer Drug Screen. Data for the rad50 strain (AID 155);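 note: 0% = growth of vehicle-only cultures of the same strain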
- CONDITION_DESCRIPTION: S. cerevisiae rad50 strain growth inhibition; at 50.0 µM (retest, dose inferred, filed as 5.0); stronger effect = higher value
The panel holds about 79,000 compounds, 15% with a hit somewhere; the sample as a whole holds those more often.
Recorded growth inhibition values for a group of molecules are listed next.

MOLECULE: OCCc1c2ccccc2cc2ccccc12
UNIT_ABBREVIATION: %
growth inhibition: -50
//
MOLECULE: O=C(c1cccs1)N(C(=S)N1CCN(c2ccccn2)CC1)C1CCCCC1
UNIT_ABBREVIATION: %
growth inhibition: 66
//
MOLECULE: CN=S(=O)(OCCCCCCCCCOS(=O)(=NC)c1ccc(C)cc1)c1ccc(C)cc1 (stereo not given)
UNIT_ABBREVIATION: %
growth inhibition: 12
//
MOLECULE: CC(C)COC(=O)c1ccc(NC(=O)CCl)cc1
UNIT_ABBREVIATION: %
growth inhibition: 93
//
MOLECULE: c1ccc(N=Nc2ccc3ccccc3c2)cc1
UNIT_ABBREVIATION: %
growth inhibition: 9

* * *

- PROCEDURE_TEXT: NCI Yeast Anticancer Drug Screen. Data for the sgs1 mgt1 strain (AID 161);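 note: 0% = growth of cultures given vehicle only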
- CONDITION_DESCRIPTION: S. cerevisiae sgs1 mgt1 strain, at 50.0 µM, stronger effect = higher value
The panel holds about 79,000 compounds, 15% with a hit somewhere; the sample as a whole holds those more often.

MOLECULE: CN(C)C(=O)c1cc(Cl)cc(-c2ccccc2)c1O
growth inhibition, %: 46.1
//
MOLECULE: Cc1cc(C)nc(NS(=O)(=O)c2ccc(Nc3c4ccccc4nc4c(C(=O)NC(CO)(CO)CO)cccc34)cc2)n1
growth inhibition, %: 4.9
//
MOLECULE: CC(=O)NC1CCCCC1c1ccc(C2CCCCC2NC(C)=O)cc1 (stereo not given)
growth inhibition, %: 5.3
//
MOLECULE: CC(=O)NNc1nc(C)c(C(=O)NNC(=O)C(=O)Nc2c(C)cccc2C(C)C)s1
growth inhibition, %: 47
//
MOLECULE: CCCCCCCCCCCCCCCCS(=O)(=O)Cl
growth inhibition, %: 59.8
//
MOLECULE: [Cl][Pt+2][Cl].[NH-]c1cc2ccccc2cc1[NH-]
growth inhibition, %: 69.2
//
MOLECULE: O=C1C=CC(=O)C1=Cc1ccc(Cl)c(Cl)c1
growth inhibition, %: 98.7
//
MOLECULE: C1=C(C2=C[P+](c3ccccc3)(c3ccccc3)C=C(c3ccccc3)O2)OC(c2ccccc2)=C[P+]1(c1ccccc1)c1ccccc1
growth inhibition, %: -5.35
//
MOLECULE: O=C1C=CC(=C(c2ccccc2)c2ccc(O)cc2)C=C1
growth inhibition, %: 65.3
//
MOLECULE: Cc1ccc([N+](=O)[O-])c2c(NCCCN(C)C)c3ccccc3nc12
growth inhibition, %: 97.2
//
MOLECULE: CCCCCCCC[N+](C)(CCCCCCCC)CCCCCCCC
growth inhibition, %: 93
//
MOLECULE: CCC(c1ccc(OC)cc1)C(CC)c1ccc(O)c(CN(C)C)c1 (stereo not given)
growth inhibition, %: 72.9
//
MOLECULE: CCCN1CCN(c2ccc([N+](=O)[O-])c3no[n+]([O-])c23)CC1
growth inhibition, %: 89.5
//
MOLECULE: ClC(Cl)(Cl)C1=CC2c3ccccc3C1c1ccccc12
growth inhibition, %: 87.8
//
MOLECULE: O=C1CSC(=S)N1/N=C/c1ccc(Cl)c([N+](=O)[O-])c1
growth inhibition, %: 27.4
//
MOLECULE: Fc1cccc(NC(=S)SCc2ccco2)c1
growth inhibition, %: 96
//
MOLECULE: COc1ccc2c(c1)n([O-])c1cc(C#N)ccc1[n+]2=O
growth inhibition, %: 35.9
//
MOLECULE: COc1cc2c(cc1OC)C(N(C)C)C(c1ccccc1)=C2Cl (stereo not given)
growth inhibition, %: 92.2
//
MOLECULE: O=C1C(Cl)=C(N2CCN(c3ccccn3)CC2)C(=O)c2ncccc21
growth inhibition, %: 91
//
MOLECULE: O=[N+]([O-])c1ccc(O)c(-c2ccccc2)c1
growth inhibition, %: 98.8
//
MOLECULE: CC(CO)CCC(=O)C(C)C1C(=O)CC2CC3CC(O)CCC3(C)CC21C (stereo not given)
growth inhibition, %: 84
//
MOLECULE: CCC[CH2][Sn]([CH2]CCC)([O]C(=O)c1cc(F)ccc1F)[O][Sn]([CH2]CCC)([CH2]CCC)[O]C(=O)c1cc(F)ccc1F
growth inhibition, %: 63.2
//
MOLECULE: Cc1ccc(SCc2ccccc2Cl)nn1
growth inhibition, %: -2.3
//
MOLECULE: CC1CCC(C(C)C)C(OC(=O)Nc2ccc(S(=O)(=O)N(C)C)cc2)C1 (stereo not given)
growth inhibition, %: 96
//
MOLECULE: COc1cc(OC)c(C(=O)[O][Sn]([c]2ccccc2)([c]2ccccc2)[c]2ccccc2)cc1OC
growth inhibition, %: 97.3
//
MOLECULE: c1ccc(CSc2nnc(SCc3ccccc3)c3[nH]cnc23)cc1
growth inhibition, %: 46.1
//
MOLECULE: c1cnc2ccc3c4cccnc4ccc3c2c1
growth inhibition, %: 61.3
//
MOLECULE: COC1=CC(=O)[C@H]2CC(C)=CC[C@]2(C)C1=O
growth inhibition, %: -4.75
//
MOLECULE: O=C(O)CCCNc1ncc2c(n1)-c1ccccc1OC2
growth inhibition, %: -3.35
//
MOLECULE: CC(=O)SC(SC(C)=O)SC(C)=O
growth inhibition, %: 93.1
//
MOLECULE: CCCCCCCCCCCCCCCC[N+](C)(C)C(C)c1ccc(OC)cc1 (stereo not given)
growth inhibition, %: 90
//
MOLECULE: CCOC(=O)c1ccc(N(CCC(O)CN=[N+]=[N-])S(=O)(=O)c2ccc(C)cc2)cc1 (stereo not given)
growth inhibition, %: 53.4
//
MOLECULE: COc1ccc(/C=C/c2ccnc3ccccc23)cc1OC
growth inhibition, %: 87.9
//
MOLECULE: CCN(CC)c1ccc2nc3ccc(N(CC)CC)cc3[n+](-c3ccccc3)c2c1
growth inhibition, %: 98.7
//
MOLECULE: O=C(O)/C=C/C(=O)Nc1cc2c(cc1Br)-c1ccccc1C2Br (stereo not given)
growth inhibition, %: 7.45
//
MOLECULE: CN(/N=C/C(O)C(O)C(O)CO)c1ccccc1 (stereo not given)
growth inhibition, %: 98.5
//
MOLECULE: NC(=O)C1(Br)C=[N+](Cc2ccccc2)CCC1 (stereo not given)
growth inhibition, %: 11.8
//
MOLECULE: O=C(CS)Nc1ccccc1
growth inhibition, %: 61.1
//
MOLECULE: O=[N+]([O-])c1cc(Br)cc(Br)c1O
growth inhibition, %: 40.4
//
MOLECULE: C(CCCCCN1CCCCC1)CCCCN1CCCCC1
growth inhibition, %: 7.2
